Assayed system: EGFR (Homo sapiens (Human), UniProt P00533)
Sequence (P00533 25-1210): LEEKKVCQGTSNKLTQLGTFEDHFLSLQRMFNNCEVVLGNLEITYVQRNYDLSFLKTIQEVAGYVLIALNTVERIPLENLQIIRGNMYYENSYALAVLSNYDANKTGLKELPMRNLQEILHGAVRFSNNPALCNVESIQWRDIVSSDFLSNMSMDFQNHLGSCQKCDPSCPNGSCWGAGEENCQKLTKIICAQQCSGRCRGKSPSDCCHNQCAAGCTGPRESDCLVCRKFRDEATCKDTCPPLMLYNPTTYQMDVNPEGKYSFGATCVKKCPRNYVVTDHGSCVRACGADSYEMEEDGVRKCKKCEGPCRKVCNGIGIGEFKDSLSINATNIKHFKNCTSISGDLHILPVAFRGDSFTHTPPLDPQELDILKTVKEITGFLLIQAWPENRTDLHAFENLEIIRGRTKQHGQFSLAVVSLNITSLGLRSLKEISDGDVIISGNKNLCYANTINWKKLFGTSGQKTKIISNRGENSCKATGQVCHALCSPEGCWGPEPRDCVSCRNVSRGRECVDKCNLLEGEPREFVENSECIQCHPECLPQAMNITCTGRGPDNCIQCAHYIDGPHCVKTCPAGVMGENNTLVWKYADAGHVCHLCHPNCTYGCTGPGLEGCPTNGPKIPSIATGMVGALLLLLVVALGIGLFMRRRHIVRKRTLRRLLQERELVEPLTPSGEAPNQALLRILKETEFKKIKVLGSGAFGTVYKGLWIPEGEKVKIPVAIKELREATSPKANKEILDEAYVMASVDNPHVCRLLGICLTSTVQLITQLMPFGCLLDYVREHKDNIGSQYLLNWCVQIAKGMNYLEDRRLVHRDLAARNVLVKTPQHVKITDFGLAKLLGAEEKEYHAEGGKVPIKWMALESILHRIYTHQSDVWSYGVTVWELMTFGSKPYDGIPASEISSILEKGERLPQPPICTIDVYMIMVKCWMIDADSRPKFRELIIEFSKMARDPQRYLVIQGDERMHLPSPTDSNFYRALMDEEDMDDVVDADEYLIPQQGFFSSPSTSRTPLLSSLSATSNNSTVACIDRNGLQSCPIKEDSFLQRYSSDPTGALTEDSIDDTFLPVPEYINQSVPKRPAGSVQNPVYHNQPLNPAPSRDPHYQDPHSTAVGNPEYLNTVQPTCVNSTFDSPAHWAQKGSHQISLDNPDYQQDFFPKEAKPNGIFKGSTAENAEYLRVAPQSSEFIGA
Parameter measured: IC50

Guide cases for IC50, answers given:
>>> experimental_result("CON1CCN(c2ncc3ncnc(Nc4ccc(Oc5ccc6c(c5)ncn6C)c(C)c4Cl)c3n2)CC1")
"≥ 10 µM"
>>> experimental_result("Cc1cc(Nc2ncnc3cnc(N4CC[C@]5(CCO5)C4)nc23)ccc1Oc1ccc2c(c1)ncn2C")
"≥ 10 µM"

## Task What measured IC50 goes with "Cc1cc(Nc2ncnc3cnc(N4CCC[C@@](C)(O)C4)nc23)ccc1Oc1ccn2ncnc2c1" ?
## Result 1.41 µM

## Task What measured IC50 goes with "Cc1cc(Nc2ncnc3cnc(NCC(C)(C)C#N)nc23)ccc1Oc1ccc2c(c1)ncn2C" ?
## Result ≥ 10 µM

## Task What measured IC50 goes with "O[C@H]1[C@@H]2CC[C@H]1CN(c1ncc3ncnc(Nc4ccc(Oc5ccn6ncnc6c5)c(Cl)c4)c3n1)C2" ?
## Result 1.67 µM

## Task What measured IC50 goes with CNc1ncc2ncnc(Nc3ccc(Oc4ccc5scnc5c4)c(C)c3)c2n1 [Example 50, 2,2,2-trifluoroacetate] ?
## Result 0.363 µM

## Task What measured IC50 goes with "Cc1cc(Nc2ncnc3cnc(N4CC5(CCOC5)C4)nc23)ccc1Oc1ccc2c(c1)ncn2C" ?
## Result 1 µM

## Task What measured IC50 goes with "Cc1cc(Nc2ncnc3cnc(N4C[C@H]5C[C@@H]4CO5)nc23)ccc1Oc1ccc2c(c1)ncn2C" ?
## Result ≥ 10 µM

---

Reported IC50 values, EGFR (Homo sapiens (Human), UniProt P00533).
Response body: numeric value in µM, unit text excluded.

>>> experimental_result("Cc1cc(Nc2ncnc3cnc(N(C)[C@H]4C[C@H](O)C4)nc23)ccc1Oc1ccn2ncnc2c1 [Example 366]")
0.303

## Task What measured IC50 goes with Clc1cc(Nc2ncnc3cnc(N4CCO[C@H]5C[C@H]54)nc23)ccc1Oc1ccn2ncnc2c1 [Example 384] ?
## Result 4.31

---

# IC50 listing for each entry below
Assayed system: ErbB2 insYVMA (HER2-YVMA, SEQ ID NO: 2) (Homo sapiens, UniProt P04626, INS775YVMA/P1170A)
Sequence (P04626 with tags, fused parts or gaps INS775YVMA/P1170A limits assumed): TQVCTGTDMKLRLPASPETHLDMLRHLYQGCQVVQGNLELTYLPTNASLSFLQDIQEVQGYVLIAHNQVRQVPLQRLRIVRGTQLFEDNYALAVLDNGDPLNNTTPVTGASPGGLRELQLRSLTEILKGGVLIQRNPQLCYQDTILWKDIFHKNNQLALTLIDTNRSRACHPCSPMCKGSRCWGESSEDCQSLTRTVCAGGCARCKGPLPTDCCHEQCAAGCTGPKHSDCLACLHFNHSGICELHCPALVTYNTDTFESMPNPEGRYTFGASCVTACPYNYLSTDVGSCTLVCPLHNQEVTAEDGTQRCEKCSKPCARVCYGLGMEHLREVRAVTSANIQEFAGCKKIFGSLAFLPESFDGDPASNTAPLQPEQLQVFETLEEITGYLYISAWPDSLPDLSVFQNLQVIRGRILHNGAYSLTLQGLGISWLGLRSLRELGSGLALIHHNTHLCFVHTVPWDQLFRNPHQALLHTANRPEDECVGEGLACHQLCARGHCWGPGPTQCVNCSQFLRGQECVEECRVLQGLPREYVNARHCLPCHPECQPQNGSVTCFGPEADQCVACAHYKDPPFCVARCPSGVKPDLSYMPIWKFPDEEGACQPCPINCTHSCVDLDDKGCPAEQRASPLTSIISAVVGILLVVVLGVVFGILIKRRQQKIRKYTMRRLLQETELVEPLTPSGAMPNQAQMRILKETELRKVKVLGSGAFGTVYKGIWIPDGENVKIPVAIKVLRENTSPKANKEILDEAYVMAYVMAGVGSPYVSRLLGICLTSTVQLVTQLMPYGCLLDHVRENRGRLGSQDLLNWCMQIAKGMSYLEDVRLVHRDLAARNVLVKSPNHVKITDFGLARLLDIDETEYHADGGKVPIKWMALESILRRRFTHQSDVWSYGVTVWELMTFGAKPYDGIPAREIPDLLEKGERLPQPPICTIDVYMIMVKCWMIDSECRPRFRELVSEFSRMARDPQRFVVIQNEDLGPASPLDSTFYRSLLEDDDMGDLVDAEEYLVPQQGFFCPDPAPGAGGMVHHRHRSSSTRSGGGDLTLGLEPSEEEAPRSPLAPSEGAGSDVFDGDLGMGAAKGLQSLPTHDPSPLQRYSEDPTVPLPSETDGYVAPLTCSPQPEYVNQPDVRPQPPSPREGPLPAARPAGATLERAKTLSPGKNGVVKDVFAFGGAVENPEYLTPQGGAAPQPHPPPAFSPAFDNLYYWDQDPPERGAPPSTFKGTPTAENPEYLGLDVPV
Assay remarks: biochemical
Stated conditions: ErbB2 insYVMA enzyme assay; read-out: Assay 1 IC50
Response body: numeric value in nM, unit text excluded.

Guide cases for IC50, answers given:
>>> experimental_result("Cc1cc(Nc2ncnc3cnc(N4C[C@@H](O)C5(CC5)C4)nc23)c(Cl)cc1Oc1ccc2c(c1)ncn2C")
73.8
>>> experimental_result("Cc1cc(Nc2ncnc3cnc(N4CC[C@@H](C(C)(C)O)C4)nc23)ccc1Oc1ccc2c(c1)ncn2C")
13.1
>>> experimental_result("Cc1cc(Nc2ncnc3cnc(N(C)[C@H]4C[C@@H](C(C)(C)O)C4)nc23)ccc1Oc1ccc2c(c1)ncn2C")
26.4

Now turn to the next compound.
## Task What measured IC50 goes with "Cc1cc(Nc2ncnc3cnc(N(C)CC(C)(C)CO)nc23)ccc1Oc1ccc2c(c1)ncn2C" ?
## Result 32.8

---

Assayed system: ErbB2 insYVMA (HER2-YVMA, SEQ ID NO: 2) (Homo sapiens, UniProt P04626, INS775YVMA/P1170A)
Assay remarks: biochemical
Stated conditions: ErbB2 insYVMA enzyme assay; read-out: Assay 1 IC50
Parameter measured: pIC50
By convention, pIC50 is the negative base-10 log of a molar concentration.

>>> experimental_result("Cc1c(Oc2ccc3c(c2)ncn3C)ccc(Nc2ncnc3cnc(N4CC5CC4CO5)nc23)c1F (stereo not drawn)")
7.82

## Task What measured pIC50 goes with "Cc1cc(Nc2ncnc3cnc(N4C[C@@H]5[C@@H](C#N)[C@@H]5C4)nc23)ccc1Oc1ccc2c(c1)ncn2C" ?
## Result 6.83

## Task What measured pIC50 goes with "Cc1cc(Nc2ncnc3cnc(N4CC5(CCOC5)C4)nc23)ccc1Oc1ccc2c(c1)ncn2C" ?
## Result 7.47

## Task What measured pIC50 goes with "Cc1cc(Nc2ncnc3cnc(N4CCP(C)(=O)CC4)nc23)ccc1Oc1ccc2c(c1)ncn2C" ?
## Result 7.15

## Task What measured pIC50 goes with "Cc1cc(Nc2ncnc3cnc(N4CCC5(CCO5)CC4)nc23)ccc1Oc1ccc2c(c1)ncn2C" ?
## Result 7.50

## Task What measured pIC50 goes with "COC[C@H](C)Nc1ncc2ncnc(Nc3ccc(Oc4ccc5c(c4)ncn5C)c(C)c3)c2n1" ?
## Result 7.40
